# target system: human FAAH (Fatty Acid Amide Hydrolase) (Homo sapiens, UniProt O00519)
# Construct: The full length FAAH was subcloned into the mammalian expression vector, pcDEF.neo, using XbaI and EcoRI restriction sites; expressed in transfected cells
# assay remarks: FAAH enzyme assay on CHO cell lysate expressing human FAAH (human LY), AAMCA fluorescent substrate
# Assay type: biochemical
# particulars: human FAAH_CHO cell lysate
pIC50: −log10 of the molar value.
Examples of compounds with documented pIC50 follow.
quantity: pIC50

compound: Cn1cccc2c(Sc3ccc(Cl)cn3)c(-c3ccc(C(O)C(F)(F)F)cc3)nc1-2 (stereo not shown)
target system: human FAAH (Fatty Acid Amide Hydrolase) (Homo sapiens, UniProt O00519)
assay result: 6.94

compound: Cn1c(-c2ccc(C(O)C(F)(F)F)cc2)c(Sc2ccc(Cl)cc2)c2cccnc21 (stereo not shown)
target system: human FAAH (Fatty Acid Amide Hydrolase) (Homo sapiens, UniProt O00519)
assay result: 6.97

compound: OCCn1cccc2c(Sc3ccc(Cl)cn3)c(-c3ccc4c(c3)OCCO4)nc1-2
target system: human FAAH (Fatty Acid Amide Hydrolase) (Homo sapiens, UniProt O00519)
assay result: 6.77

compound: Clc1ccc(Sc2c(C3=CCCCC3)[nH]c3ncccc23)cc1
target system: human FAAH (Fatty Acid Amide Hydrolase) (Homo sapiens, UniProt O00519)
assay result: 7.80

----------
# target system: human FAAH (Fatty Acid Amide Hydrolase) (Homo sapiens)
# Construct: The full length FAAH was subcloned into the mammalian expression vector, pcDEF.neo, using XbaI and EcoRI restriction sites; expressed in transfected cells
# assay remarks: FAAH enzyme assay on CHO cell lysate expressing human FAAH (human LY), AAMCA fluorescent substrate
# Assay type: biochemical
# particulars: human FAAH_CHO cell lysate
# Description: To assist in assay development stable cell lines for human, murine and rat full length FAAH were developed. Human FAAH cDNA (Accession No: NM_001441.1) was purchased from Origene (Rockville, Md.). The full length FAAH was subcloned into the mammalian expression vector, pcDEF.neo, using XbaI and EcoRI restriction sites and used for stable cell line generation. CHO cells expressing FAAH were used to prepare either crude cell lysate or microsome fractions. […]
pIC50: −log10 of the molar value.
Rule: pIC50 under 8 gives Not met, otherwise Met.

compound: NS(=O)(=O)c1ccc(-c2[nH]c3ncccc3c2Sc2ccc(Cl)cc2)cc1
class label: Met

compound: Clc1ccc(Sc2c(CNC3CCOCC3)[nH]c3ncccc23)cc1
class label: Not met

compound: N#CC1CC=C(c2[nH]c3ncccc3c2Sc2ccc(Cl)cc2)CC1 (stereo not drawn)
class label: Not met

compound: OCC1CC=C(c2[nH]c3ncccc3c2Sc2ccc(Cl)cc2)CC1 (stereo not drawn)
class label: Met

compound: COc1ccc(-c2[nH]c3ncccc3c2Sc2ccc(Cl)cc2)cc1OC
class label: Met

compound: O[C@H]1CC[C@H](c2[nH]c3ncccc3c2Sc2ccc(Cl)cc2)CC1
class label: Met

compound: OC(c1ccc2c(c1)OCO2)c1[nH]c2ncccc2c1Sc1ccc(Cl)cc1 (stereo not drawn)
class label: Not met

compound: Clc1ccc(Sc2c(C3=CCCC3)[nH]c3ncccc23)cc1
class label: Not met

compound: Clc1ccc(Sc2c(-c3cnn4c3CCC4)[nH]c3ncccc23)cc1
class label: Not met

compound: CC(=O)Nc1ccc(-c2[nH]c3ncccc3c2Sc2ccc(Cl)cc2)cc1
class label: Not met

compound: O=C(O)C1CC=C(c2[nH]c3ncccc3c2Sc2ccc(Cl)cc2)CC1 (stereo not drawn)
class label: Not met

compound: CC(C)C(O)c1[nH]c2ncccc2c1Sc1ccc(Cl)cc1 (stereo not drawn)
class label: Not met

compound: Cn1cccc2c(Sc3ccc(Cl)cc3)c(-c3ccc(C(O)C(F)(F)F)cc3)nc1-2 (stereo not drawn)
class label: Not met

compound: COCc1ccccc1-c1[nH]c2ncccc2c1Sc1ccc(Cl)cc1
class label: Not met

compound: CC1(C)CCC(NC(=O)c2[nH]c3ncccc3c2Sc2ccc(Cl)cc2)CC1
class label: Not met

----------
# target system: human FAAH (Fatty Acid Amide Hydrolase) (Homo sapiens)
# Construct: The full length FAAH was subcloned into the mammalian expression vector, pcDEF.neo, using XbaI and EcoRI restriction sites; expressed in transfected cells
# assay remarks: FAAH enzyme assay on CHO cell lysate expressing human FAAH (human LY), AAMCA fluorescent substrate
# Assay type: biochemical
# particulars: human FAAH_CHO cell lysate
pIC50: −log10 of the molar value.
Rule: pIC50 under 8 gives not fulfilled, otherwise fulfilled.

molecule: Nc1ccc(-c2[nH]c3ncccc3c2Sc2ccc(Cl)cc2)cc1 [Example A27]
class label: fulfilled
--
molecule: CC(C)(C)NS(=O)(=O)c1ccc(-c2[nH]c3ncccc3c2Sc2ccc(Cl)cc2)cc1 [Example A22]
class label: not fulfilled
--
molecule: OC(c1ccc(-c2[nH]c3ncccc3c2Sc2ccc(Cl)cc2)cc1)C(F)(F)F (centres unmarked) [Example A12]
class label: fulfilled

----------
# target system: human FAAH (Fatty Acid Amide Hydrolase) (Homo sapiens)
# Construct: The full length FAAH was subcloned into the mammalian expression vector, pcDEF.neo, using XbaI and EcoRI restriction sites; expressed in transfected cells
# Sequence (O00519 1-579): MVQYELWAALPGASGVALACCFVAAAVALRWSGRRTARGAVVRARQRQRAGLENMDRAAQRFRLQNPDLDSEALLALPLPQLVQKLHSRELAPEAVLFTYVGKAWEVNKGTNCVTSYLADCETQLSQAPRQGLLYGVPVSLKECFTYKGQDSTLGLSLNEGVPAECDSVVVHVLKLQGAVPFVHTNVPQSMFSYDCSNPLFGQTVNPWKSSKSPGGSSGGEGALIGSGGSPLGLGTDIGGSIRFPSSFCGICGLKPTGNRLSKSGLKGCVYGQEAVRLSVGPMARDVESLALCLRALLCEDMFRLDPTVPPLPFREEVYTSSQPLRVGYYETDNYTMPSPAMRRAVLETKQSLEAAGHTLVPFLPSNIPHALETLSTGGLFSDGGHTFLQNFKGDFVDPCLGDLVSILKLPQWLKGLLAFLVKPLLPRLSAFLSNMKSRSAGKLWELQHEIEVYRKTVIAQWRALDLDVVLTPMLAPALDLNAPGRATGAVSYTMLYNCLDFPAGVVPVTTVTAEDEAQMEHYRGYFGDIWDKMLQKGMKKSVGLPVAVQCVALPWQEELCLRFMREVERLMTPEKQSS
# assay remarks: FAAH whole cell assay on CHO cells expressing human FAAH (human WC), AAMCA fluorescent substrate
# Assay type: cell-based
# particulars: human FAAH_CHO whole cell
pIC50: −log10 of the molar value.
Examples of molecules with documented pIC50 follow.

molecule: OCc1ccc(-c2[nH]c3ncccc3c2Sc2ccc(Cl)cc2)cc1
target system: human FAAH (Fatty Acid Amide Hydrolase) (Homo sapiens)
pIC50: 6.88
--
molecule: Cn1cccc2c(Sc3ccc(Cl)cn3)c(C3=CCC(O)CC3)nc1-2 (stereo not drawn)
target system: human FAAH (Fatty Acid Amide Hydrolase) (Homo sapiens)
pIC50: 5.92
--
molecule: CSc1ccc(-c2[nH]c3ncccc3c2Sc2ccc(Cl)cc2)cc1
target system: human FAAH (Fatty Acid Amide Hydrolase) (Homo sapiens)
pIC50: 8.12
--
molecule: OC[C@H]1CC[C@H](c2[nH]c3ncccc3c2Sc2ccc(Cl)cc2)CC1
target system: human FAAH (Fatty Acid Amide Hydrolase) (Homo sapiens)
pIC50: 7.45
--
molecule: FC(F)(F)c1ccc(/C=C/c2[nH]c3ncccc3c2Sc2ccc(Cl)cc2)cc1
target system: human FAAH (Fatty Acid Amide Hydrolase) (Homo sapiens)
pIC50: 6.43
--
molecule: O=C(N[C@H]1CC[C@H](O)CC1)c1[nH]c2ncccc2c1Sc1ccc(Cl)cc1
target system: human FAAH (Fatty Acid Amide Hydrolase) (Homo sapiens)
pIC50: 7.32
--
molecule: CCNC(=O)C1CC=C(c2[nH]c3ncccc3c2Sc2ccc(Cl)cc2)CC1 (stereo not drawn)
target system: human FAAH (Fatty Acid Amide Hydrolase) (Homo sapiens)
pIC50: 7.54
--
molecule: Cn1cccc2c(Sc3ccc(Cl)cc3)c(C(=O)NC3CCC(O)CC3)nc1-2 (stereo not drawn)
target system: human FAAH (Fatty Acid Amide Hydrolase) (Homo sapiens)
pIC50: 6.30
--
molecule: Cn1cc(-c2[nH]c3ncccc3c2Sc2ccc(Cl)cc2)cn1
target system: human FAAH (Fatty Acid Amide Hydrolase) (Homo sapiens)
pIC50: 5.38
--
molecule: O=C(Nc1ccc2[nH]ncc2c1)c1[nH]c2ncccc2c1Sc1ccc(Cl)cc1
target system: human FAAH (Fatty Acid Amide Hydrolase) (Homo sapiens)
pIC50: 7.74
--
molecule: COc1ccc(-c2[nH]c3ncccc3c2Sc2ccc(Cl)cc2)cc1
target system: human FAAH (Fatty Acid Amide Hydrolase) (Homo sapiens)
pIC50: 7.99
--
molecule: O=C(c1[nH]c2ncccc2c1Sc1ccc(Cl)cc1)N1CCc2ccncc21
target system: human FAAH (Fatty Acid Amide Hydrolase) (Homo sapiens)
pIC50: 5.57
--
molecule: Clc1ccc(Sc2c(-c3cccc4[nH]ccc34)[nH]c3ncccc23)cc1
target system: human FAAH (Fatty Acid Amide Hydrolase) (Homo sapiens)
pIC50: 7.68
--
molecule: COc1ccc(Cc2[nH]c3ncccc3c2Sc2ccc(Cl)cc2)cc1
target system: human FAAH (Fatty Acid Amide Hydrolase) (Homo sapiens)
pIC50: 6.82
--
molecule: Cn1cc2cc(-c3nc4n(C)cccc-4c3Sc3ccc(Cl)cc3)ccc2n1
target system: human FAAH (Fatty Acid Amide Hydrolase) (Homo sapiens)
pIC50: 7.76
--
molecule: OCC1CC=C(c2[nH]c3ncccc3c2Sc2ccc(Cl)cc2)CC1 (stereo not drawn)
target system: human FAAH (Fatty Acid Amide Hydrolase) (Homo sapiens)
pIC50: 8.09
--
molecule: Clc1ccc(Sc2c(-c3ccc4c(c3)OCCO4)[nH]c3ncccc23)cc1
target system: human FAAH (Fatty Acid Amide Hydrolase) (Homo sapiens)
pIC50: 7.93
--
molecule: COc1ccc(-c2[nH]c3ncccc3c2Sc2ccc(Cl)cc2)cn1
target system: human FAAH (Fatty Acid Amide Hydrolase) (Homo sapiens)
pIC50: 7.72
--
molecule: C[C@H](CO)NC(=O)c1[nH]c2ncccc2c1Sc1ccc(Cl)cc1
target system: human FAAH (Fatty Acid Amide Hydrolase) (Homo sapiens)
pIC50: 5.68
--
molecule: Clc1ccc(Sc2c(-c3ccc4c(c3)OCO4)[nH]c3ncccc23)nc1
target system: human FAAH (Fatty Acid Amide Hydrolase) (Homo sapiens)
pIC50: 7.86
--
molecule: Clc1ccc(Sc2c3cccn(CCn4cccc4)c-3nc2-c2ccc3c(c2)OCO3)cc1
target system: human FAAH (Fatty Acid Amide Hydrolase) (Homo sapiens)
pIC50: 5.49
--
molecule: Clc1ccc(Sc2c(-c3ccccn3)[nH]c3ncccc23)cc1
target system: human FAAH (Fatty Acid Amide Hydrolase) (Homo sapiens)
pIC50: 5.95
--
molecule: Cn1cccc2c(Sc3ccc(Cl)cc3)c(-c3ccc(C(O)C(F)F)cc3)nc1-2 (stereo not drawn)
target system: human FAAH (Fatty Acid Amide Hydrolase) (Homo sapiens)
pIC50: 7.23
--
molecule: Cn1c2ncccc2c(Sc2ccc(Cl)cc2)c1[C@H]1CC[C@H](O)CC1
target system: human FAAH (Fatty Acid Amide Hydrolase) (Homo sapiens)
pIC50: 8.00
--
molecule: NC1CC=C(c2[nH]c3ncccc3c2Sc2ccc(Cl)cc2)CC1 (stereo not drawn)
target system: human FAAH (Fatty Acid Amide Hydrolase) (Homo sapiens)
pIC50: 5.85
--
molecule: CC(C)(O)CN1CCC(c2[nH]c3ncccc3c2Sc2ccc(Cl)cc2)CC1
target system: human FAAH (Fatty Acid Amide Hydrolase) (Homo sapiens)
pIC50: 7.50
--
molecule: Cn1cccc2c(Sc3ccc(Cl)cc3)c(-c3ccc4c(c3)OCCO4)nc1-2 [Example E2]
target system: human FAAH (Fatty Acid Amide Hydrolase) (Homo sapiens)
pIC50: 7.63
--
molecule: CC1(C)CC(NCc2[nH]c3ncccc3c2Sc2ccc(Cl)cc2)CC(C)(C)O1
target system: human FAAH (Fatty Acid Amide Hydrolase) (Homo sapiens)
pIC50: 6.70
--
molecule: Cc1noc(C)c1-c1[nH]c2ncccc2c1Sc1ccc(Cl)cc1
target system: human FAAH (Fatty Acid Amide Hydrolase) (Homo sapiens)
pIC50: 5.95
--
molecule: COc1ccc(C(O)c2[nH]c3ncccc3c2Sc2ccc(Cl)cc2)cc1 (stereo not drawn)
target system: human FAAH (Fatty Acid Amide Hydrolase) (Homo sapiens)
pIC50: 5.08
--
molecule: O=C(NCCO)c1[nH]c2ncccc2c1Sc1ccc(Cl)cc1
target system: human FAAH (Fatty Acid Amide Hydrolase) (Homo sapiens)
pIC50: 5.53
--
molecule: COc1cccc(-c2[nH]c3ncccc3c2Sc2ccc(Cl)cc2)c1
target system: human FAAH (Fatty Acid Amide Hydrolase) (Homo sapiens)
pIC50: 7.73
--
molecule: OC(c1ccccc1)c1[nH]c2ncccc2c1Sc1ccc(Cl)cc1 (stereo not drawn)
target system: human FAAH (Fatty Acid Amide Hydrolase) (Homo sapiens)
pIC50: 5.00
--
molecule: O=C(c1[nH]c2ncccc2c1Sc1ccc(Cl)cc1)N1CCC(O)CC1
target system: human FAAH (Fatty Acid Amide Hydrolase) (Homo sapiens)
pIC50: 5.96
--
molecule: NS(=O)(=O)c1ccc(-c2[nH]c3ncccc3c2Sc2ccc(Cl)cc2)cc1
target system: human FAAH (Fatty Acid Amide Hydrolase) (Homo sapiens)
pIC50: 7.66
--
molecule: Clc1ccc(Sc2c(-c3cnn4c3CCC4)[nH]c3ncccc23)cc1
target system: human FAAH (Fatty Acid Amide Hydrolase) (Homo sapiens)
pIC50: 6.16
